# experiment_description: NCI Yeast Anticancer Drug Screen. Data for the bub3 strain (AID 167)
# applied_conditions: S. cerevisiae bub3 mutant strain, at 50.0 µM, hits give high values
The panel holds about 79,000 compounds, 15% with a hit somewhere; the sample as a whole holds those more often.
attribute_measured: growth inhibition (%)
Give bare numbers, in %.

Solved cases below.
O=C(C/C(=N/O)C(=O)NC1=C(Cl)C(=O)c2ccccc2C1=O)CC(c1ccccc1)c1c(O)c2ccccc2oc1=O (stereo not given) :: 84.7
C[C@]12CC[C@H]3[C@@H](CC[C@]4(O)C[C@@H](O)CC[C@]34CO)[C@@]1(O)CC[C@@H]2C1=CC(=O)OC1 :: 1.35
CC1CC[Si](C)(C)CC12C(=O)NC(=O)NC2=O (stereo not given) :: 10.1
Cc1c([As](=O)(O)O)ccc2nc3c(C)c([As](=O)(O)O)ccc3nc12 :: 2.4

I have 6 molecules here; please give me growth inhibition for each one.
1. Cc1ccc2[nH]c(=S)n(-c3cccc(C(F)(F)F)c3)c(=O)c2c1
2. CCOP(=O)(CC#N)OCC
3. CC(=O)C1CCC2C3CC=C4CC(OOS(=O)c5ccc(C)cc5)CCC4(C)C3CCC12C (stereo not given)
4. CCOC(=O)C1C2(C)NC(=O)C1(Cc1ccccc1)c1cc(C)c(C)cc1O2 (stereo not given)
5. COc1ccc2[nH]cc(CCN(C)C)c2c1
6. CCCCOP(=O)(CSCC)OCCCC

a:
[22.6, 2.7, 22.4, -3.3, -1.6, 14.9]

---

# experiment_description: NCI Yeast Anticancer Drug Screen. Data for the sgs1 mgt1 strain (AID 161);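 further: 0% = growth of cultures given vehicle only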
# applied_conditions: S. cerevisiae sgs1 mgt1 strain, at 50.0 µM, hits give high values
This is part of a sample that, as a whole, favours compounds with a hit. Of some 79,000 tested, about 15% had one in any assay.
Assignment: determine reported growth inhibition for the given compounds.
Answers are plain numbers, in %.

Solved cases below.
CC(C)c1cccc(C(C)C)c1NC(=O)/C(CC(=O)CC(c1ccccc1)c1c(O)c2ccccc2oc1=O)=N/O (stereo unspecified) :: 19.1
CC(C)c1cc2c(c(O)c1O)[C@@]1(C(=O)O)CCCC(C)(C)[C@@H]1CC2 :: 93.3
CCC1c2cc(O)c(OC)cc2CCN1C (stereo unspecified) :: 2.45
O=C(O)CP(=S)(S)c1ccccc1 (stereo unspecified) :: -26.4
C[N+]1=C(c2cccnc2/C=N/O)OCC1(C)C :: -13.7

I have 5 compounds here; please give me growth inhibition for each one.
1. Cc1ccc(-n2c(=O)[nH]c3ccccc3c2=O)cc1[N+](=O)[O-]
2. COc1cc2c(c(OC)c1OC)CC1c3c(cc4c(c3-2)OCO4)CCN1C (stereo unspecified)
3. Cc1ccc(NC(=O)/C=C/c2ccc([N+](=O)[O-])cc2)cc1S(=O)(=O)F
4. CC[C@@]1(O)C(=O)OCc2c1cc1n(c2=O)Cc2cc3cc(OC)ccc3nc2-1
5. CN(C)CCCc1c[nH]c2ccccc12

a:
[33, -18.1, 30, 86.7, -4.85]

q: Report growth inhibition, nothing else, for this compound: CN1C2CCC1CC1(C2)SCCS1
a: 3.1

---

# experiment_description: NCI Yeast Anticancer Drug Screen. Data for the mec2-1 strain (AID 157)
# applied_conditions: S. cerevisiae mec2-1 strain, at 50.0 µM, hits give high values
This is part of a sample that, as a whole, favours compounds with a hit. Of some 79,000 tested, about 15% had one in any assay.
attribute_measured: growth inhibition (%)
Numbers only, in %.

Solved cases below.
C[C@@]12CC/C(=N\OCC(=O)O)C=C1CC[C@H]1C2CC[C@]2(C)C1CC[C@H]2O (some centres undefined) :: -2.55
Cc1ccc(P(=O)(O)O)cc1 :: -15.9
Cn1nnc(C(N)=O)n1 :: -15.2
COCC1OC2OC3C(COC)OC(OC4C(COC)OC(OC5C(COC)OC(OC6C(COC)OC(OC7C(COC)OC(OC8C(COC)OC(OC1C(O)C2O)C(O)C8O)C(O)C7O)C(O)C6O)C(O)C5O)C(O)C4O)C(O)C3O (centres undefined) (tested in a mixture with another compound) :: -13.6
COc1ccc2c(c1O)-c1cc(O)cc3c1C(C2)N(CCCl)CC3 (centres undefined) :: 29.1

I have 2 compounds here; please give me growth inhibition for each one.
1. CN(C)Cc1c[nH]c2ccc(F)cc12
2. NC(=O)CCC(N)C(=O)O.[Cl-].[Cl-].[Cl-].[Cl-].[Pt+2] (centres undefined)

a:
1: -13.8; 2: -3.35

I have 2 compounds here; please give me growth inhibition for each one.
1. [C-]#[O+].[C-]#[O+].[C-]#[O+].[C-]#[O+].[Fe].[N-]=C(C(F)(F)F)C(F)(F)F
2. NC(Cc1ccccc1)c1cccc2c1CCCC2 (centres undefined)

a:
1: -19.8; 2: -7.3
